B1: LINE1-full (parent)
chain: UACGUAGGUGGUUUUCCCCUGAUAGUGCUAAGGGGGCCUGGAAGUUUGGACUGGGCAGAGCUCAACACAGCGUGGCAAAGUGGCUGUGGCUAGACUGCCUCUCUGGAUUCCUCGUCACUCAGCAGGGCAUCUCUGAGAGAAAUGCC

Variants of: B1
EXPERIMENTAL_PROTOCOL: self-cleavage, relative activity (ratio to wild type); higher = more cleavage; in vitro, sequencing; the parent is a self-cleaving ribozyme
So basically: self-cleavage at 0.6 or higher? That is Y. Lower than 0.6? That is N.

Task: Decide: self-cleavage of UCCGUAGGUGGUUUUCCCCUGAUAGCGCUAAGGGGGCCUGGAAGUUUGGACUGGGCAGAGCUCAACACAGCGUGGCAAAGUGGCUGUGGCUAGACUGCCUCUCUGGAUUCCUCGUCACUCAGCAGGGCAUCUCUGAGAGAAAUGCC [A2C U26C] >= 0.6?
Result: Y

Task: Decide: self-cleavage of UACGUAGGUGGUUUUCCCCUGAUAGUGCUAAGGGGGCCUGGAAGUUUGGACUGGGCAGAGCUCAACACAGCGUGGCAAAGUGGCUGUGGCUAGACUGCCUCUCUGGAUACCUCGUCACACAGCAGGGCAUCUCUGAGAGAAAUGCC [U109A U119A] >= 0.6?
Result: Y

Task: Decide: self-cleavage of UACGUAGGUGGUUUUCCCCUGAUAGUGCCAAGGGGGCCUGGAAGUUUGGACUGGGCAGAGCUCAACACAGCGUGGCAGAGUGGCUGUGGCUAGACUGCCUCUCUGGAUUCCUCGUCACUCAGCAGGGCAUCUCUGAGAGAAAUGCC [U29C A78G] >= 0.6?
Result: Y

Task: Decide: self-cleavage of UACGUAGGUGGUUUUCCCCUGAUAGUGCUAAGGGGGCCUGGAAGCUUGGACUGGGCAGAGCUCAACACAGCGUGGCAAAGUGGCUGUGGCUAGACUGCCUCUCUGGAUUCCUCGUCACUCAGCAGGGCGUCUCUGAGAGAAAUGCC [U45C A129G] >= 0.6?
Result: Y

Task: Decide: self-cleavage of UACGUAGGUGGUUUUCCCCUGAUAGUGCUAAGGGGGCCUGGAAGUUUGGACUGGGCAGAGCUCAACACAGCGUGGCAAAGUGGUUGUGGCUAGACUGCCUCUCUGGAUUCCUCGUCACUCAGCAGGGCAUCUCUGAGAGAAACGCC [C84U U143C] >= 0.6?
Result: N

Task: Decide: self-cleavage of UACGUAGGUGGUUUUCCCCUGACAGUGCUAAGGGGGCCUGGAAGUUUGGACUGGGCAGAGCUCAACACAGCGUGGCAAAGUGGCUGUGGCUAGACUGCCUCUCUGGAUUCCUCGUCACUUAGCAGGGCAUCUCUGAGAGAAAUGCC [U23C C120U] >= 0.6?
Result: N

Task: Decide: self-cleavage of UACGCAGGUGGUUUUCCCCUGAUAGUGCUAAGGGGGCCUGGAAGUUUGGACUGGGCUGAGCUCAACACAGCGUGGCAAAGUGGCUGUGGCUAGACUGCCUCUCUGGAUUCCUCGUCACUCAGCAGGGCAUCUCUGAGAGAAAUGCC [U5C A57U] >= 0.6?
Result: N

Task: Decide: self-cleavage of UACGUAGGUGGUUUUCCCCUGAUAGUGCUAAGGGGGCCUGGAAGUUUGGACUGGGCAGAGCUCAACACAGCGUGGCAAGGUGGCUGUGGCUAGACUGCCUCUCUGGAUUCCUCGUCACUCAGCAGGGCACCUCUGAGAGAAAUGCC [A79G U130C] >= 0.6?
Result: Y

Task: Decide: self-cleavage of UACGUAGGUGGUUUUCCCCUGAUAGUGCUAAGGGGGCCUGGAAGUUUGGACUGGGCAGAGCUCAUCACAGCGUGGCAAAGUGGCUGUGGCUAGACUGCCUCUCUGGAUUCCUCGUCACUCAGCAGGGCGUCUCUGAGAGAAAUGCC [A65U A129G] >= 0.6?
Result: N

Task: Decide: self-cleavage of UACGUAGGUGGUUUUCCCCUGAUAGUGCUAAGGGGGCCUGGAAGUUUGGACUGGGCAGAGCUCAACACAGCGUGGCAAAGUGGCUGUGGCCAGACUGCCUCUCUGGAUUUCUCGUCACUCAGCAGGGCAUCUCUGAGAGAAAUGCC [U91C C110U] >= 0.6?
Result: Y

Task: Decide: self-cleavage of UACGUAGAUGGUUUUCCCCUGAUAGUGCUAAGGGGGCCUGGAAGUUUGGGCUGGGCAGAGCUCAACACAGCGUGGCAAAGUGGCUGUGGCUAGACUGCCUCUCUGGAUUCCUCGUCACUCAGCAGGGCAUCUCUGAGAGAAAUGCC [G8A A50G] >= 0.6?
Result: Y

Task: Decide: self-cleavage of UACGUAGGUGGCUUUCCCCUGAUAGUGCUAAGGGGGCCUGGAAGUUUGGACUGGGCAGAGCUCAACACAGCGUGGCAAAGUGGCUGUGGCUAGACUGCCUCUCUGGAUUCCUCGUCACUCAGCAGGGCAUCUCUGAGAGAACUGCC [U12C A142C] >= 0.6?
Result: Y

Task: Decide: self-cleavage of UACGUAGGUGGUUUUCCCCUGAUAGUGCUAAGGGGGCCUGGAAGUUUGGACUGGGCAGAGCUCAACACAGCGUGGCAAAGUGGCUGUGGCCAGACUGCCUCUCUGGAUUCCUCGCCACUCAGCAGGGCAUCUCUGAGAGAAAUGCC [U91C U115C] >= 0.6?
Result: Y

Task: Decide: self-cleavage of UACGUAGGUGGUUUUCCCCUGAUAGUGUUAAGGGGGCCUGGAAGUUUGGACUGGGCAGAGCUCAACACAGCGUGGCAAAGUGGCUGUGGCUAGACUGCCUCUCUGGAUUCCUCGUCACUCAGCAGGGCAUCUCUGAGAGAUAUGCC [C28U A141U] >= 0.6?
Result: N

Task: Decide: self-cleavage of UACGUAGGUGGUUUUCCCCUGACAGUGCCAAGGGGGCCUGGAAGUUUGGACUGGGCAGAGCUCAACACAGCGUGGCAAAGUGGCUGUGGCUAGACUGCCUCUCUGGAUUCCUCGUCACUCAGCAGGGCAUCUCUGAGAGAAAUGCC [U23C U29C] >= 0.6?
Result: Y

Task: Decide: self-cleavage of UACGUAGGUGGUUUUCCCCUGAUAGUGCUAAGGGGGCCUGGAAGUUUGGGCUGGGCAGAGCUCAACACAGCGUGGCAAAGUGGCUGUGGCUAGACUGCCUCUCUGGAUUCCUCGUCACUCAGCAGAGCAUCUCUGAGAGAAAUGCC [A50G G126A] >= 0.6?
Result: N

Task: Decide: self-cleavage of UACGUAGGUGGUUUUCCCCUGAUAGUGCUAAGGGGGCCUGGAAGUUUGGACUGGGCAGGGCUCAACACAGCGUGGCAAAGUGGCUGUGGCUAGCCUGCCUCUCUGGAUUCCUCGUCACUCAGCAGGGCAUCUCUGAGAGAAAUGCC [A59G A94C] >= 0.6?
Result: N

Task: Decide: self-cleavage of UACGUAGGUGGUUUUCCCCUGAUAGUGCUAAGGGGGCCUGGAAGUUUGGACUGGGCCGAGCUCAACACAGCGUGGCAAAGUGGCUGUGGCUAGACUGCCUCUCUGGAUUCCUCGUCACUCAGCAGGGCAACUCUGAGAGAAAUGCC [A57C U130A] >= 0.6?
Result: N

Task: Decide: self-cleavage of UACGUAGGUGGUUUUCUCCUGAUAGUGCUAAGGGGGCCUGGAAGUUUGGACUGGGCAGAGCUCAACACAGCGUGGCAAAGUGGCUGUGGCUAGACUGCCUCUCUGGAUUCCUCGUCACUCAGCAGGGCAUCUCUGAGAGAGAUGCC [C17U A141G] >= 0.6?
Result: N

Task: Decide: self-cleavage of UACGUAGGUGGUUUUCCCCUGCUAGUGCUAAGGGGGCCUGGGAGUUUGGACUGGGCAGAGCUCAACACAGCGUGGCAAAGUGGCUGUGGCUAGACUGCCUCUCUGGAUUCCUCGUCACUCAGCAGGGCAUCUCUGAGAGAAAUGCC [A22C A42G] >= 0.6?
Result: Y

Task: Decide: self-cleavage of UACGUAGGUGGUUUUCCCCUGAUAGUGCUAAGGGGGCCUGGAAGUUUGGACUGGGCAGAGCUCAACACAGCGUAGCAAAGUGGCUGUGGCUAGACUGCCUCUCUGGAUUCCUCGUCACUCUGCAGGGCAUCUCUGAGAGAAAUGCC [G74A A121U] >= 0.6?
Result: Y

The reported numbers originate from the RNAGym collection of RNA variant scans (doi:10.7554/elife.90254).
